For each record, write down the corresponding EC50.
- Test system: dengue virus type 4
- ASSAY METHOD TEXT: Antiviral activity against DENV4 infected in human Huh7 cells
- Assay type: functional, organism-based
- CONDITION: Huh-7

Known results for compounds:
# COMPOUND, EC50
data = [
    ("O=C1CC2(C(=O)Nc3ccc(Cl)cc32)c2cnn(Cc3ccc(Cl)c(Cl)c3)c2N1 (stereo unspecified)", "> 5 µM"),
    ("O=C1CC2(C(=O)Nc3ccc(Cl)cc32)c2cnn(Cc3ccc(C(F)(F)F)cc3C(F)(F)F)c2N1 (stereo unspecified)", "> 5 µM"),
    ("O=C1CC2(C(=O)Nc3ccc(Cl)cc32)c2cnn(Cc3ccc(Cl)c(F)c3)c2N1 (stereo unspecified)", "> 5 µM"),
    ("O=C1CC2(C(=O)Nc3ccc(Cl)cc32)c2cnn(Cc3ccc(Cl)cc3F)c2N1 (stereo unspecified)", "> 5 µM"),
    ("O=C1CC2(C(=O)Nc3ccc(Cl)cc32)c2cnn(Cc3ccc(Cl)cc3)c2N1 (stereo unspecified)", "> 10 µM"),
]

Tell me the measured EC50 of Cc1nn(Cc2ccc(Cl)cc2)c2c1C1(CC(=O)N2)C(=O)Nc2ccc(Cl)cc21 (stereo unspecified) , please.
> 5 µM

Source of measurements: ChEMBL document CHEMBL4627359
